Sourced from patent US7897602B2

- Study Target: Aurora A kinase (Homo sapiens, UniProt O14965)
- Construct: purchased Upstate
- Sequence (O14965 whole entry): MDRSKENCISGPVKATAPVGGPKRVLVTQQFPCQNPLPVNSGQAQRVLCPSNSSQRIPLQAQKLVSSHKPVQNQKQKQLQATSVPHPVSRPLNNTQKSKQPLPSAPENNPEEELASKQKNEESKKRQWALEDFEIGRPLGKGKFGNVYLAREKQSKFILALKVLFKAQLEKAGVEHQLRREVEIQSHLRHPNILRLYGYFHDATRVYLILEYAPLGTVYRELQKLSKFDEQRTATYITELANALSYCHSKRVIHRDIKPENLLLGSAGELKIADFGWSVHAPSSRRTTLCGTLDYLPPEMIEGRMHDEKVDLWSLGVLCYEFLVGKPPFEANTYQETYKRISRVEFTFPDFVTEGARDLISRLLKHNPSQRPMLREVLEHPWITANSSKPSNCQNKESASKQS
- Test Details: Aurora A kinase assay ([γ-33P]ATP, CHOCKtide substrate)
- Type: biochemical
- Run Conditions: 1.0 μM test compound
Experimental Endpoint: inhibition at 1 µM (%)

Use these answered entries as a reference point.
>>> df
                         chemical_structure  number
0  CCOC(=O)CCc1c(/C=C2\C(=O)Nc3ccc(S(=O)(=O)Cc4c(Cl)cccc4Cl)cc32)[nH]c2c1C(=O)CCC2    22.7
1  CC(=O)c1c(C)[nH]c(/C=C2\C(=O)Nc3ccc(S(=O)(=O)N4CCc5ccccc54)cc32)c1CCC(=O)N1CCN(C)CC1    37.4

[A] O=C(O)CCc1c(/C=C2\C(=O)Nc3ccc(NC(=O)c4ccc(F)cc4)cc32)[nH]c2c1C(=O)CCC2
[B] O=C(O)CCc1c(/C=C2\C(=O)Nc3ccc(NC(=O)c4ccc([N+](=O)[O-])cc4)cc32)[nH]c2c1C(=O)CCC2
In: Sort A and B by inhibition at 1 µM descending and give the first. Could you answer with the label of the item you picked?
Out: A
(A: 40.7%, B: 27.1%)
